System: in vivo angiogenesis, blood vessel count
Measurement Notes: reduction of blood vessel formation in vivo – HTS, in vivo study (AID 732);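 note: zebrafish embryos dosed at one day post fertilization; 0% = reference inhibitor and 100% = plate mean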
Run Parameters: active compounds read low;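 tested at 30 µM in the well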
Test Readout: vessel count % control (%)
Record the value in %, omitting the unit from your answer.

Solved entries:
Smiles Notation	vessel count % control / %
Cc1ccccc1/C=C/C1=NCCN1	102
CCCN1CCc2cc(O)cc3c2[C@H]1Cc1ccc(O)c(O)c1-3	114
CNCCC=C1c2ccccc2CCc2ccccc21	103
C=Cc1c(C)c2cc3[nH]c(cc4nc(cc5nc(cc1[nH]2)C(C)=C5CCC(=O)O)C(CCC(=O)O)=C4C)c(C)c3C=C	112
N#CC(C#N)=C(N)/C(C#N)=C/c1ccc(O)cc1	93

# ---- query compound ----
Query (compound): CC(=O)Nc1nnc(S(N)(=O)=O)s1 ; field requested: vessel count % control
78.2

====

Tested on: in vivo angiogenesis, blood vessel count
Measurement Notes: reduction of blood vessel formation in vivo – HTS, in vivo study (AID 732)
Run Parameters: active compounds read low;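 tested at 30 µM in the well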
Consider the following compounds and their measured vessel count % control readings.
Record the value in %, omitting the unit from your answer.

Compound	Unit Tag	Measured Result
COc1cc(C(O)CO)ccc1OS(=O)(=O)O (stereo unspecified)	%	93.6
COc1ccc2[nH]c3c(c2c1)CCNC3	%	137
Cn1cnc2c1c(=O)[nH]c(=O)n2C	%	118

Query (compound): CC(/C=C/c1cccc(Oc2ccc(F)cc2)c1)N(O)C(N)=O (stereo unspecified) ; field requested: vessel count % control
100

Input CCN1CCC[C@H]1CNC(=O)c1c(O)c(Cl)cc(Cl)c1OC
103

Input NC1CONC1=O (stereo unspecified)
117

Input O=c1[nH]c(=O)c2nc3ccccc3nc2[nH]1
129

Input CCN(CC)CCNC(=O)c1cc(Cl)c(N)cc1OC
99.4

====

Consider the following compounds and their measured vessel count % control readings.
Test system: in vivo angiogenesis, blood vessel count
Measurement Notes: reduction of blood vessel formation in vivo – HTS, in vivo study (AID 732)
Run Parameters: active compounds read low;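 tested at 30 µM in the well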
Record the value in %, omitting the unit from your answer.

Solved entries:
Compound	System Name	Measured Result
CN1C2CC(OC(=O)[C@H](CO)c3ccccc3)CC1C1OC12 (some centres not stated)	in vivo angiogenesis, blood vessel count	79.7
COc1cc(CC(C)N)c(OC)cc1I (configuration not stated)	in vivo angiogenesis, blood vessel count	79.5
Cn1cnc2c(NC3CCCC3)ncnc21	in vivo angiogenesis, blood vessel count	95.9
Cc1nc(N=Nc2ccc(S(=O)(=O)O)cc2S(=O)(=O)O)c(COP(=O)(O)O)c(C=O)c1O	in vivo angiogenesis, blood vessel count	110
CC12CCC3C(CCC4=C(O)C(=O)CCC43C)C1CCC2=O (configuration not stated)	in vivo angiogenesis, blood vessel count	109
NC1CCc2cc(O)c(O)cc2C1 (configuration not stated)	in vivo angiogenesis, blood vessel count	94.8
CCCCCCCCC(=O)NCc1ccc(O)c(OC)c1	in vivo angiogenesis, blood vessel count	98.1
COc1cc2nc(N3CCN(C(=O)C4COc5ccccc5O4)CC3)nc(N)c2cc1OC (configuration not stated)	in vivo angiogenesis, blood vessel count	103

# get_value(readout= vessel count % control, system= in vivo angiogenesis, blood vessel count) for O=C1C(c2c(O)[nH]c3c(Cl)cc(Cl)cc23)=Nc2ccc(Br)cc21
123

Input O=C(O)CCCC[C@@H]1CCSS1
100

Input CC(C)(C)NCC(O)c1ccccc1Cl (configuration not stated)
130

Input OC[C@H]1NC[C@@H](O)[C@@H]1O
96

====

Consider the following compounds and their measured vessel count % control readings.
Test system: in vivo angiogenesis, blood vessel count
Measurement Notes: reduction of blood vessel formation in vivo – HTS, in vivo study (AID 732)
Run Parameters: active compounds read low;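 tested at 30 µM in the well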
Record the value in %, omitting the unit from your answer.

Solved entries:
Compound	vessel count % control / %
O=C(O)C1C2CCC(O2)C1C(=O)O (centres undefined)	98.3
O=C(O)c1ccccc1Nc1cccc(OCc2ccc3ccccc3n2)c1	85.3
CC[N+](C)(C)Cc1ccccc1Br	116
CCOC(=O)c1cnc2c(cnn2CC)c1NN=C(C)C	108

Query (compound): O=C(O)/C=C/c1ccc(O)c(O)c1 ; field requested: vessel count % control
108

Input CCc1cccc2c3c([nH]c12)C(CC)(CC(=O)O)OCC3 (centres undefined)
83.6

Input Nc1ncnc2c1ncn2[C@@H]1O[C@H](COP(=O)(O)OP(=O)(O)OP(=O)(O)OP(=O)(O)OC[C@@H]2O[C@H](n3cnc4c(N)ncnc43)C(O)[C@@H]2O)[C@H](O)C1O (some centres undefined)
89.7

Input Oc1[nH]c2c(Cl)cc(Cl)cc2c1C1=Nc2ccc(Br)cc2/C1=N\OCCN1CCCC1
93.4

Input CN1C(=O)CC[C@H]1c1cccnc1
110

Input CC1(C)CCC2=C(O1)c1ccccc1C(=O)C2=O
65.8

Input CCOC(=O)C(C)(C)Oc1ccc(Cl)cc1
55.4

Input Fc1ccc(C(c2ccc(F)cc2)N2CCN(C/C=C/c3ccccc3)CC2)cc1
91.5

Input NC(N)=Nc1nc(CSCC/C(N)=N/S(N)(=O)=O)cs1
113

Input O=c1[nH]c(=O)n([C@H]2C[C@H](O)[C@@H](CO)O2)cc1Br
105

Input OC[C@H]1O[C@@H](n2cnc3c(NC4CCCCC4)ncnc32)[C@H](O)[C@@H]1O
104

Input Nc1nc(OCc2ccccc2)c2[nH]cnc2n1
91

Input COc1ccc(CCN)cc1O
108

Input C[C@H](Cc1ccc(O)c(O)c1)[C@@H](C)Cc1ccc(O)c(O)c1
124

====

Tested on: in vivo angiogenesis, blood vessel count
Measurement Notes: reduction of blood vessel formation in vivo – HTS, in vivo study (AID 732)
Run Parameters: active compounds read low;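 tested at 30 µM in the well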
Consider the following compounds and their measured vessel count % control readings.
Record the value in %, omitting the unit from your answer.

Compound	Measured Result
CC1=NS(=O)(=O)c2cc(Cl)ccc2N1	116
O=C(Nc1ccccc1)c1cc([N+](=O)[O-])ccc1Cl	90.3
CCN(CC)C(C)C(=O)N1c2ccccc2Sc2ccccc21 (configuration not stated)	94.9
Cc1[nH]c(=O)c(C#N)cc1-c1ccncc1	84.9
Cn1cnc([N+](=O)[O-])c1Sc1ncnc2nc[nH]c12	81.5
CCCc1c(-c2ccc(O)cc2)nn(-c2ccc(O)cc2)c1-c1ccc(O)cc1	106
CN(C)c1nc(N(C)C)nc(N(C)C)n1	86
Cc1cccc(C#Cc2ccccc2)n1	92.1
Cc1cccc(C)c1NC(=O)C[N+](C)(C)C	87.6
CN1CCC(c2c[nH]c3ccc(O)cc23)CC1	95.9

Query (compound): COc1ccc(NC(=O)/C=C/c2ccc(Cl)cc2)cc1 ; field requested: vessel count % control
106

Input COc1ccc2c(c[n+](C)c3c4cc5c(cc4ccc23)OCO5)c1OC
124

====

Tested on: in vivo angiogenesis, blood vessel count
Measurement Notes: reduction of blood vessel formation in vivo – HTS, in vivo study (AID 732);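 note: zebrafish embryos dosed at one day post fertilization; 0% = reference inhibitor and 100% = plate mean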
Run Parameters: active compounds read low;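 tested at 30 µM in the well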
Test Readout: vessel count % control (%)
Record the value in %, omitting the unit from your answer.

Solved entries:
Compound	System Name	vessel count % control / %
CC(=O)N[C@@H](Cc1c[nH]c2ccccc12)C(=O)OCc1cc(C(F)(F)F)cc(C(F)(F)F)c1	in vivo angiogenesis, blood vessel count	70.4
CC1=C(CC(=O)O)c2cc(F)ccc2/C1=C\c1ccc(S(C)=O)cc1 (stereo unspecified)	in vivo angiogenesis, blood vessel count	89.8
Cc1nnc(SCC2=C(C(=O)O)N3C(=O)[C@@H](NC(=O)Cn4cnnn4)[C@H]3SC2)s1	in vivo angiogenesis, blood vessel count	90.8
CN=C(NC#N)Nc1ccc(C2=NNC(=O)CC2C)cc1 (stereo unspecified)	in vivo angiogenesis, blood vessel count	106
N=C(N)c1ccccc1	in vivo angiogenesis, blood vessel count	110
O=c1[nH]c2ccccc2n1CCCN1CCC(n2c(=O)[nH]c3cc(Cl)ccc32)CC1	in vivo angiogenesis, blood vessel count	83.8

Query (compound): CC(C)NCC(O)COc1ccc(CCOCC2CC2)cc1 (stereo unspecified) ; field requested: vessel count % control
94.3

====

Tested on: in vivo angiogenesis, blood vessel count
Measurement Notes: reduction of blood vessel formation in vivo – HTS, in vivo study (AID 732);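 note: zebrafish embryos dosed at one day post fertilization; 0% = reference inhibitor and 100% = plate mean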
Run Parameters: active compounds read low;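 tested at 30 µM in the well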
Consider the following compounds and their measured vessel count % control readings.
Record the value in %, omitting the unit from your answer.

Query (compound): Nc1ccc(CCNc2ncnc3c2ncn3C2OC(CO)C(O)C2O)cc1 (stereo not given) ; field requested: vessel count % control
110

Input Cc1oncc1C(=O)Nc1ccc(C(F)(F)F)cc1
81.6

====

Consider the following compounds and their measured vessel count % control readings.
Test system: in vivo angiogenesis, blood vessel count
Measurement Notes: reduction of blood vessel formation in vivo – HTS, in vivo study (AID 732);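 note: zebrafish embryos dosed at one day post fertilization; 0% = reference inhibitor and 100% = plate mean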
Run Parameters: active compounds read low;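 tested at 30 µM in the well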
Record the value in %, omitting the unit from your answer.

Solved entries:
Compound	vessel count % control / %
COC(=O)[C@@H](N)Cc1ccc(O)c(O)c1	99.1
CCCCCC(O)CCCC(=O)O (stereo unspecified)	101
CCN(CC)CCOC(=O)c1ccc(N)cc1	112
CNCCCC1c2ccccc2C=Cc2ccccc21	96
CC(C)CN(C)c1nc(N)c(C(=O)N=C(N)N)nc1Cl	101
CC(C)(Sc1ccc(CCN(CCCCC2CCCCC2)C(=O)NC2CCCCC2)cc1)C(=O)O	103
C[C@H](O)C(=O)C1=Nc2c(nc(N)[nH]c2=O)NC1	117
NC(N)=NCCSSCCN=C(N)N	93.7

Query (compound): NCCc1c[nH]c2ccccc12 ; field requested: vessel count % control
118

Input O=c1n(CCCN2CCN(c3cccc(Cl)c3)CC2)nc2ccccn12
88

Input CC(COc1ccc(/C=C/c2ccccc2)cc1)[N+](C)(C)C (stereo unspecified)
106

Input O=[N+]([O-])c1ccc(-c2nc(-c3ccc(F)cc3)c(-c3ccncc3)[nH]2)cc1
124

Input CCCCCCCCCCCCCCC[C@H](O)[C@H](N)CO
101
